Source listed as patent US6255092A.

# System: secondary alcohol dehydrogenase (Lodderomyces parapsilosis, UniProt O42703)
# Sequence (O42703 entry or part of it): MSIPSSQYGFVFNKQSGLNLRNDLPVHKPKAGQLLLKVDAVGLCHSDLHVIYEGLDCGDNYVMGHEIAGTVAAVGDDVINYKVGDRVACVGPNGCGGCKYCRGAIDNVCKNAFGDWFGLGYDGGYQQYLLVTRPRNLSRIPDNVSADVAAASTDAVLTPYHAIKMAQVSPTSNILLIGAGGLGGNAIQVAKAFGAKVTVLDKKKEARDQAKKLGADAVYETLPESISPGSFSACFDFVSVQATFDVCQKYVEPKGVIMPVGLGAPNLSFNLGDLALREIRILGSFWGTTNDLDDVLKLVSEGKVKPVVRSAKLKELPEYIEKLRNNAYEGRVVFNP
# Procedure text: biochemical
# Format: biochemical, Candida parapsilosis
# Parameters: full length 336 aa, about 40 kDa; gene also expressed in E. coli JM109 (pKK-CPA1)
Measured attribute: Inhibition of the enzyme activity (in words)

# Molecule, System, Result
rows = [
    ("O[C@H](CS)[C@H](O)CS (racemic)", "secondary alcohol dehydrogenase (Lodderomyces parapsilosis, UniProt O42703)", "markedly inhibited"),
    ("[Cl-].[Cl-].[Zn+2] [ZnCl2, zinc chloride]", "secondary alcohol dehydrogenase (Lodderomyces parapsilosis, UniProt O42703)", "markedly inhibited"),
    ("CCN1C(=O)C=CC1=O [N-Ethylmaleimide]", "secondary alcohol dehydrogenase (Lodderomyces parapsilosis, UniProt O42703)", "inhibited"),
    ("c1cnc2c(c1)ccc1cccnc12", "secondary alcohol dehydrogenase (Lodderomyces parapsilosis, UniProt O42703)", "inhibited"),
    ("O=C(O)CN(CCN(CC(=O)O)CC(=O)O)CC(=O)O", "secondary alcohol dehydrogenase (Lodderomyces parapsilosis, UniProt O42703)", "not"),
]

###

# System: secondary alcohol dehydrogenase (Lodderomyces parapsilosis)
# Procedure text: Substrate specificity: reducing activity with ketones/aldehydes (NADH)
# Type: biochemical, Candida parapsilosis
# Parameters: full length 336 aa, about 40 kDa; gene also expressed in E. coli JM109 (pKK-CPA1)
# Condition label: reduction, substrate 100 mM, coenzyme NADH, relative to 2-butanone reducing activity (100%)
# cutoff 80% applies to Relative activity; >= gives true, < gives false

# Molecule, Discrete label
rows = [
    ("CCC(C)=O [2-Butanone]", "true"),
    ("CCC=O [Propionaldehyde]", "false"),
    ("CC(=O)C(C)(C)O [3-Hydroxy-3-methyl-2-butanone]", "false"),
    ("CC(=O)CCO [4-Hydroxy-2-butanone]", "false"),
    ("CC(C)=O [Acetone]", "true"),
]

###

# System: UniProt O42703
# Procedure text: biochemical
# Format: biochemical, Candida parapsilosis
# Design: full length 336 aa, about 40 kDa; gene also expressed in E. coli JM109 (pKK-CPA1)
# Condition label: inhibitor 1 mM, 30° C. for 30 min, relative to untreated enzyme (100%)

# Compound, System, Units text, Relative activity (remaining activity)
data = [
    ("[Cl][Hg][Cl] [HgCl2, mercuric chloride]", "UniProt O42703", "%", 0.0),
    ("[Cl-].[Cl-].[Zn+2] [ZnCl2, zinc chloride]", "UniProt O42703", "%", 16.4),
    ("O=S(=O)([O-])[O-].[Cu+2] [CuSO4]", "UniProt O42703", "%", 25.5),
    ("O=S(=O)(F)Cc1ccccc1 [Phenylmethanesulfonyl fluoride, Phenylmethane-sulfonyl fluoride]", "UniProt O42703", "%", 69.0),
]

###

# System: secondary alcohol dehydrogenase (Lodderomyces parapsilosis, UniProt O42703)

# Molecule, Relative activity
records = [
    ("C[C@@H](O)c1ccccc1 [(R)-1-Phenylethanol]", 1.1),
    ("CO", 0.2),
    ("C[C@H](O)c1ccccc1 [(S)-1-Phenylethanol]", 89.3),
    ("OC1CCCCC1", 52.8),
]

###

# System: secondary alcohol dehydrogenase (Lodderomyces parapsilosis, UniProt O42703)
# Procedure text: biochemical
# Type: biochemical, Candida parapsilosis
# Parameters: full length 336 aa, about 40 kDa; gene also expressed in E. coli JM109 (pKK-CPA1)
# Condition label: inhibitor 1 mM, 30° C. for 30 min, relative to untreated enzyme (100%); read-out: Relative activity (remaining activity)

# Compound, Units text, remaining activity at 1000 µM
measured = [
    ("OCCS", "%", 3.2),
    ("CCN1C(=O)C=CC1=O [N-Ethylmaleimide]", "%", 21.2),
    ("c1cnc2c(c1)ccc1cccnc12", "%", 19),
    ("O[C@H](CS)[C@H](O)CS (racemic)", "%", 0),
]
